Recorded values, source patent US20230174610A1.

Entries annotated with measured EC50
- Experimental system: T1, RXFP1 receptor expressed by transient transfection in HEK293T cells (UniProt Q9HBX9 1-757, limits assumed)
- T1 sequence (looked up): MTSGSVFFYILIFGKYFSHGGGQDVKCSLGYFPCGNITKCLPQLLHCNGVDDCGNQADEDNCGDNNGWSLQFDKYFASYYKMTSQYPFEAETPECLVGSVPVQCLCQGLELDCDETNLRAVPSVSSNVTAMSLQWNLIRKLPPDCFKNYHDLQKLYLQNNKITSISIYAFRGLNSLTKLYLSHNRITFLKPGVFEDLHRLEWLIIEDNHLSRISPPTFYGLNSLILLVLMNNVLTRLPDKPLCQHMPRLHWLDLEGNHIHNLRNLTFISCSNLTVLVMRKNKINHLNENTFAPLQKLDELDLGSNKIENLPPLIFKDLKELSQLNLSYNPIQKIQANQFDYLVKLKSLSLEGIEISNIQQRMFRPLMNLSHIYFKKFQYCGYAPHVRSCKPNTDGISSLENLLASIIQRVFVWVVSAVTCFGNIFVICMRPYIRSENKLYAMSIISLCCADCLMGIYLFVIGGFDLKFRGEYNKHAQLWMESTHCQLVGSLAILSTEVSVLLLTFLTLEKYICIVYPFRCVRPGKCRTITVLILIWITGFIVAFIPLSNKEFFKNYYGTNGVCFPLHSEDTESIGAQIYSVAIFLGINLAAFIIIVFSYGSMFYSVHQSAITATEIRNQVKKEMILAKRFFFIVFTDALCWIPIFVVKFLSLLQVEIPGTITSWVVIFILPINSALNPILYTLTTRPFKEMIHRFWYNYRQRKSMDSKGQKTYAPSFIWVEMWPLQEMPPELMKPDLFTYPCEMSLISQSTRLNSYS
- Measurement description: cell-based or functional assay
Write the value in nM as a bare number.

Return reported EC50; argument: SE004, Protein C-tag and His-tag single-chain relaxin (ligand) EDQVDPRLIDGKGSHHHHHHDSWMEEVIKLCGRELVRAQIAICGMSTWSDAASSHSHSSARQLYSALANKCCHVGCTKRSLARFC
1.5

Query binder follows.
Return reported EC50; argument: SE005, Truncated His-tag single-chain relaxin (ligand) HHHHHHEEVIKLCGRELVRAQIAICGMSTWSDAASSHSHSSARQLYSALANKCCHVGCTKRSLARFC
0.485
